Assay: Microsomal stability assay, HLM
Type: in vitro ADME
Conditions: human, pH 7.4, 1 μM test compound, 0.5 mg/mL liver microsomes protein, 37° C., 0-60 min, read-out: HLM +/− NADPH: Clint (μL/min/mg protein)
Structures can show the parent of a compound that is named as a salt.
So I've got a bunch of molecules here, and I need their microsomal CLint at 1 μM values.

CC(C)(c1ccc(OCC(=O)N2CCN(S(C)(=O)=O)CC2)cc1)c1cc(Cl)c(OCCCCl)c(Cl)c1    12 to 48 µL/min/mg
CN(CC(=O)CNS(C)(=O)=O)c1ccc(C(C)(C)c2cc(Cl)c(OCCCCl)c(Cl)c2)cc1    12 to 48 µL/min/mg
CN(CC(=O)CNS(C)(=O)=O)c1ccc(C(C)(C)c2cc(Cl)c(OCCCl)c(Cl)c2)cc1 [Compound A81, hydrochloride]    12 to 48 µL/min/mg
COc1cc(C(C)(C)c2ccc(OCCCCl)cc2)ccc1OCC(=O)CNS(C)(=O)=O    ≥ 48 µL/min/mg
CC(C)(c1ccc(OCC(=O)CNS(C)(=O)=O)cc1)c1cc(Cl)c(OCc2ccc(Cl)cc2)c(Cl)c1    ≥ 48 µL/min/mg
CC(C)(c1ccc(OCC(=O)CNS(C)(=O)=O)cc1)c1ccc(OCCCCl)cc1Cl    ≥ 48 µL/min/mg

Would you mind listing microsomal CLint at 1 μM for each of the following molecules?
1. CC(C)(c1ccc(OCC(N)=O)cc1)c1cc(Cl)c(OCCCCl)c(Cl)c1
2. COCC(=O)COc1ccc(C(C)(C)c2cc(Cl)c(OC[C@H](O)CCl)c(Cl)c2)cc1 [A56(S)]
3. CS(=O)(=O)NCC(=O)CCOc1ccc(-c2cc(Cl)c(OCCCCl)c(Cl)c2)cc1
4. CS(=O)(=O)NCC(=O)COc1ccc(-c2cc(Cl)c(OCC(O)CCl)c(Cl)c2)cc1 (stereo not shown)
5. CC(C)(c1ccc(NC(=O)CCNS(C)(=O)=O)cc1)c1cc(Cl)c(OCCCCl)c(Cl)c1
6. CC(O)(CCl)COc1c(Cl)cc(C(C)(C)c2ccc(NC(=O)C(=O)C(F)(F)F)cc2)cc1Cl (stereo not shown)

1. 12 to 48 µL/min/mg
2. ≥ 48 µL/min/mg
3. 12 to 48 µL/min/mg
4. ≥ 48 µL/min/mg
5. < 12 µL/min/mg
6. < 12 µL/min/mg

Would you mind listing microsomal CLint at 1 μM for each of the following molecules?
1. Cc1cc(C(C)(C)c2ccc(OCC(=O)CNS(C)(=O)=O)cc2)ccc1OCCCCl
2. CC(C)(c1ccc(OCC(=O)CNS(C)(=O)=O)cc1)c1cc(Cl)c(OCc2cccc(Cl)c2)c(Cl)c1
3. CC(C)(c1ccc(OCCCCl)cc1)c1ccc(OCC(=O)CNS(C)(=O)=O)c(C#N)c1
4. CS(=O)(=O)NCC(=O)COc1ccc(Cc2cc(Cl)c(OCCCCl)c(Cl)c2)cc1

1: ≥ 48 µL/min/mg; 2: ≥ 48 µL/min/mg; 3: ≥ 48 µL/min/mg; 4: ≥ 48 µL/min/mg

----------
Test: Microsomal stability assay, MLM
Format: in vitro ADME
Settings: mouse, pH 7.4, 1 μM test compound, 0.5 mg/mL liver microsomes protein, 37° C., 0-60 min, read-out: MLM +/− NADPH: Clint (μL/min/mg protein)
endpoint name: microsomal CLint at 1 μM

// solved cases for microsomal CLint at 1 μM follow
CC(C)NC(=O)COc1ccc(C(C)(C)c2cc(Cl)c(OCCCCl)c(Cl)c2)cc1 [Compound A30]    < 12 µL/min/mg
CS(=O)(=O)NCC(=O)COc1ccc(-c2cc(Cl)c(OCC(O)CCl)c(Cl)c2)cc1 (centres unmarked) [Compound A25]    ≥ 48 µL/min/mg
COCC(=O)COc1ccc(Cc2cc(Cl)c(OCC(O)CCl)c(Cl)c2)cc1 (centres unmarked) [Compound A57]    ≥ 48 µL/min/mg
CC(C)(c1ccc(OCC(=O)CNS(C)(=O)=O)cc1)c1cc(Cl)c(OCCCBr)c(Cl)c1 [Compound A61]    ≥ 48 µL/min/mg
CC(C)(c1ccc(OCC(=O)CNS(C)(=O)=O)cc1)c1cc(Cl)c(CCCCCl)c(Cl)c1 [Compound A34]    ≥ 48 µL/min/mg

Would you mind listing microsomal CLint at 1 μM for each of the following compounds?
1. CS(=O)(=O)NCC(=O)COc1ccccc1Cc1cc(Cl)c(OCCCCl)c(Cl)c1 [Compound A49]
2. CC(C)(c1ccc(OCC(=O)CS(C)(=O)=O)cc1)c1cc(Cl)c(OCCCCl)c(Cl)c1 [Compound A55]
3. CN(CC(=O)CNS(C)(=O)=O)c1ccc(C(C)(C)c2cc(Cl)c(OCCCCl)c(Cl)c2)cc1 [Compound A28]

≥ 48 µL/min/mg
≥ 48 µL/min/mg
12 to 48 µL/min/mg

----------
Test: Microsomal stability assay, MLM
Type: in vitro ADME
Conditions: mouse, pH 7.4, 1 μM test compound, 0.5 mg/mL liver microsomes protein, 37° C., 0-60 min, read-out: MLM +/− NADPH: Clint (μL/min/mg protein)
endpoint name: microsomal CLint at 1 μM

// solved cases for microsomal CLint at 1 μM follow
Cc1cc(C(C)(C)c2ccc(OCC(=O)CNS(C)(=O)=O)cc2)ccc1OCCCCl [Compound A1]    ≥ 48 µL/min/mg
CC(C)(c1cccc(OCC(=O)CNS(C)(=O)=O)c1)c1ccc(Cl)c(OCCCCl)c1Cl [Compound A77]    12 to 48 µL/min/mg
COCC(=O)COc1ccc(C(C)(C)c2cc(Cl)c(OC[C@H](O)CCl)c(Cl)c2)cc1 [A56(S)]    ≥ 48 µL/min/mg

Kindly consider the entry below.
Value lookup for microsomal CLint at 1 μM; key = CC(C)(c1ccc(OCCCCl)cc1)c1ccc(OCC(=O)CNS(C)(=O)=O)c(Cl)c1 [Compound A13]
≥ 48 µL/min/mg

----------
Assay: Microsomal stability assay, MLM
Type: in vitro ADME
Details: mouse, pH 7.4, 1 μM test compound, 0.5 mg/mL liver microsomes protein, 37° C., 0-60 min, read-out: MLM +/− NADPH: Clint (μL/min/mg protein)
endpoint name: microsomal CLint at 1 μM

// solved cases for microsomal CLint at 1 μM follow
CC(C)(c1ccc(NCC(=O)CNS(C)(=O)=O)cc1)c1cc(Cl)c(OCCCCl)c(Cl)c1    12 to 48 µL/min/mg
CS(=O)(=O)NCC(=O)COc1ccc(Cc2cc(Cl)c(OCCCCl)c(Cl)c2)cc1    ≥ 48 µL/min/mg
COCC(=O)COc1ccc(C(C)(C)c2cc(Cl)c(OCC(C)(O)CCl)c(Cl)c2)cc1 (stereo not shown)    ≥ 48 µL/min/mg

Value lookup for microsomal CLint at 1 μM; key = COCC(=O)COc1ccc(C(C)(C)c2cc(Cl)c(OCCCCl)c(Cl)c2)cc1
≥ 48 µL/min/mg

----------
Tested on: LNCaP ARE-Luc
Test: Luciferase assay in LNCaP cell lysates (LNCaP ARE-Luc)
Assay type: cell-based
Settings: Homo sapiens, Firefly Luciferase Assay System, read-out: LNCaP ARE-Luc % inhibition IC50 Ranges
pIC50: −log10 of the molar value. Counter-ions that a name gives are not always drawn.
endpoint name: pIC50

Cc1cc(OCCCCl)ccc1C(C)(C)c1ccc(OCC(=O)CNS(C)(=O)=O)cc1 [Compound A2]    6.60 to 7.00

Would you mind listing pIC50 for each of the following compounds?
1. CS(=O)(=O)NCC(=O)CCOc1ccc(-c2cc(Cl)c(OCCCCl)c(Cl)c2)cc1 [Compound A76]
2. CC(C)(NS(C)(=O)=O)C(=O)COc1ccc(C(C)(C)c2cc(Cl)c(OCCCCl)c(Cl)c2)cc1 [Compound A64]
3. COCC(=O)COc1ccc(C(C)(C)c2cc(Cl)c(OC[C@H](O)CCl)c(Cl)c2)cc1 [A56(S)]

1. ≤ 6.60
2. ≤ 6.60
3. ≤ 6.60

Would you mind listing pIC50 for each of the following compounds?
1. CC(C)(c1ccc(OC(F)(F)C(=O)CCNS(C)(=O)=O)cc1)c1cc(Cl)c(OCCCCl)c(Cl)c1 [Compound A94]
2. Cc1cc(C(C)(C)c2ccc(OCCCCl)cc2)ccc1OCC(=O)CNS(C)(=O)=O [Compound A9]
3. CN(CC(=O)CNS(C)(=O)=O)c1ccc(C(C)(C)c2cc(Cl)c(OCCCl)c(Cl)c2)cc1 [Compound A81, hydrochloride]
4. CC(C)(c1ccc(OCC(=O)CNS(C)(=O)=O)cc1)c1cc(Cl)c(OC[C@H](O)CCl)c(Cl)c1 [A51(S)]

["≤ 6.60", "≤ 6.60", "≤ 6.60", "> 7.00"]

Would you mind listing pIC50 for each of the following compounds?
1. CC(=O)Oc1ccc(C(C)(C)c2cc(Cl)c(OCCCCl)c(Cl)c2)cc1 [Compound A103]
2. CC(=O)C(=O)Nc1ccc(C(C)(C)c2cc(Cl)c(OCCCCl)c(Cl)c2)cc1 [Compound A85]

1. > 7.00
2. ≤ 6.60

Hello, the source for this data is patent US11485713B2, in case you need it.
